- condition_notes: buffer; pH 7.4; 200.0 µM
Please provide measured solubility kinetic for the entries that follow.

Return reported solubility kinetic. Input compound: CCCCCc1cc(O)c2c3c(c(=O)oc2c1)CN(C)CC3
< 0.6 µg/mL

Return reported solubility kinetic. Input compound: CSc1nsc(SCC(=O)Nc2ccc(F)cc2F)n1
> 50 µg/mL

Return reported solubility kinetic. Input compound: COc1ccc(CCN)cc1O.Cl
> 30.6 µg/mL

Return reported solubility kinetic. Input compound: CC(NCC(=O)Nc1ccccc1C(=O)NC1CC1)c1cccs1 (centres undefined)
> 51.5 µg/mL

* * *

Please provide measured solubility kinetic for the entries that follow.
- condition_notes: buffer; pH 7.4; 200.0 µM

Return reported solubility kinetic. Input compound: Cc1ccc(C(=O)NCC(=O)OCC(=O)Nc2cc(S(=O)(=O)N3CCOCC3)ccc2Cl)s1
> 77.4 µg/mL

Return reported solubility kinetic. Input compound: CSc1ccc(CNCc2ccco2)cc1.Cl
> 40.5 µg/mL

Return reported solubility kinetic. Input compound: CCCCCCOC(=O)Cc1c(C)nc(N)[nH]c1=O
> 40.1 µg/mL

Return reported solubility kinetic. Input compound: CC(C)Cc1nnc(NC(=O)C2=COCCO2)s1
> 40.4 µg/mL

Return reported solubility kinetic. Input compound: O=C(COC(=O)c1ccc([N+](=O)[O-])o1)NCCCc1ccccc1
> 49.8 µg/mL

* * *

- condition_notes: buffer; pH 7.4; 200.0 µM
property_label: solubility kinetic

Return reported solubility kinetic. Input compound: CCOC(=O)COc1nc(-c2ccccc2)cc(-c2ccco2)c1C#N
< 0.4 µg/mL

Return reported solubility kinetic. Input compound: CCCC[N+]12CCC(CC1)C(Cc1ccccc1)C2.[Br-] (centres undefined)
> 50.7 µg/mL

Return reported solubility kinetic. Input compound: COc1ccc(C(=O)/C=C/NCc2ccc(F)cc2)cc1OC
> 47.3 µg/mL

Return reported solubility kinetic. Input compound: S=C(NCc1cccnc1)c1ccccc1
> 34.2 µg/mL

Return reported solubility kinetic. Input compound: CCn1cc(S(=O)(=O)Nc2ccc(Cl)cc2F)cn1
> 45.6 µg/mL

Return reported solubility kinetic. Input compound: Cc1cc(O)c(NC(=O)c2cccc([N+](=O)[O-])c2)cc1C
< 0.3 µg/mL

Return reported solubility kinetic. Input compound: Cc1ccc(CN2C(=O)c3ccccc3NC2c2ccccn2)cc1 (centres undefined)
> 49.4 µg/mL

Return reported solubility kinetic. Input compound: CC(C)c1ccc(C(=O)NCCCN2CCOCC2)cc1
> 43.6 µg/mL

Return reported solubility kinetic. Input compound: COc1ccc(NC(=O)N2CCCCCC2)cc1OC
> 41.8 µg/mL

* * *

- condition_notes: buffer; pH 7.4; 200.0 µM
property_label: solubility kinetic

Return reported solubility kinetic. Input compound: CC(=O)Nc1ccc(NC(=O)C(C)OC(=O)C2CCCC2)cc1 (centres undefined)
> 47.8 µg/mL

Return reported solubility kinetic. Input compound: COc1ccccc1Nc1nc(Cl)nc(Nc2ccccc2OC)n1
< 0.2 µg/mL

Return reported solubility kinetic. Input compound: Cc1cnc(C(=O)OCc2cc(=O)n3c(C)cccc3n2)cn1
> 46.5 µg/mL

Return reported solubility kinetic. Input compound: CCOC(=O)c1cc(NC(=O)N(C)C2CCCCC2)c(C)nc1C
> 50 µg/mL

* * *

- condition_notes: buffer; pH 7.4; 200.0 µM
Please provide measured solubility kinetic for the entries that follow.

Return reported solubility kinetic. Input compound: COc1ccccc1N1C(=O)CC(=O)NC1=O
> 35.1 µg/mL

Return reported solubility kinetic. Input compound: CCOC(=O)c1cc(Sc2ccccc2N)cc(C(=O)OCC)n1
< 0.4 µg/mL

Return reported solubility kinetic. Input compound: COc1ccc(S(=O)(=O)NCCc2ccco2)cc1OC
> 46.7 µg/mL
